- testProtocol: Oral bioavailability in fasted cynomolgus monkey at 0.3 mg/kg
- Type: ADME, organism-based, Macaca fascicularis
- cond: in vivo
measurementType: bioavailability (%)
Value expressed in %; do not type the unit.

For Cc1nc(C#Cc2ccnc(Cl)c2)c(C)n1-c1ccc(F)cc1 the compound record lists bioavailability as 100

---

- testProtocol: Oral bioavailability in fed cynomolgus monkey at 0.3 mg/kg
- Assay type: ADME, organism-based, Macaca fascicularis
- cond: in vivo
measurementType: bioavailability (%)
Value expressed in %; do not type the unit.

For Cc1nc(C#Cc2ccnc(Cl)c2)c(C)n1-c1ccc(F)cc1 [BASIMGLURANT] the molecule record lists bioavailability as 54

---

- testProtocol: Tmax in fasted cynomolgus monkey at 03 mg/kg, po
- Type: ADME, organism-based, Macaca fascicularis
- Design: dose 3 mg/kg, route oral
- cond: in vivo, 3 mg/kg
measurementType: Tmax (h)
Value expressed in h; do not type the unit.

For Cc1nc(C#Cc2ccnc(Cl)c2)c(C)n1-c1ccc(F)cc1 the compound record lists Tmax as 1

---

- testProtocol: Ratio of drug level in CSF to plasma in male Wistar rat
- Format: ADME
measurementType: Kp
Give your answer as a number; write no unit.

For Cc1nc(C#Cc2ccnc(Cl)c2)c(C)n1-c1ccc(F)cc1 [BASIMGLURANT] the compound record lists Kp as 0.06

For Cc1cc(C#Cc2cn(-c3ccc(F)cc3)c(C)n2)ccn1 the compound record lists Kp as 0.02

---

- testProtocol: Cmax in fasted cynomolgus monkey at 0.3 mg/kg, po
- Format: ADME, organism-based, Macaca fascicularis
- Parameters: dose 0.3 mg/kg, route oral
- cond: in vivo
measurementType: Cmax (ng/mL)
Value expressed in ng/mL; do not type the unit.

For Cc1nc(C#Cc2ccnc(Cl)c2)c(C)n1-c1ccc(F)cc1 the molecule record lists Cmax as 76.5

---

- testProtocol: Oral bioavailability in male Wistar rat at 10 mg/kg
- Type: ADME, organism-based
- cond: in vivo
Give measured bioavailability for each item. Keep answers brief.

For Cc1nc(C#Cc2ccnc(Cl)c2)c(C)n1-c1ccc(OC(F)(F)F)cc1 the molecule record lists bioavailability as 98%

For Cc1nc(C#Cc2ccnc(Cl)c2)c(C)n1-c1ccc(F)cc1 [BASIMGLURANT] the molecule record lists bioavailability as 91%

---

- testProtocol: Ratio of drug level in brain to plasma in male Wistar rat
- Format: ADME
- cond: read-out: BPR
measurementType: Kp
Give your answer as a number; write no unit.

For Cc1nc(C#Cc2ccnc(Cl)c2)c(C)n1-c1ccc(F)cc1 the compound record lists Kp as 2.9

For Cc1cc(C#Cc2cn(-c3ccc(F)cc3)c(C)n2)ccn1 the compound record lists Kp as 0.4

For Cc1nc(C#Cc2ccnc(Cl)c2)c(C)n1-c1ccc(OC(F)(F)F)cc1 the compound record lists Kp as 2.6

---

- testProtocol: Tmax in male Wistar rat at 10 mg/kg, po
- Type: ADME, organism-based
- Design: dose 10 mg/kg, route oral
- cond: in vivo
measurementType: Tmax (h)
Value expressed in h; do not type the unit.

For Cc1nc(C#Cc2ccnc(Cl)c2)c(C)n1-c1ccc(F)cc1 [BASIMGLURANT] the molecule record lists Tmax as 6.2

For Cc1nc(C#Cc2ccnc(Cl)c2)c(C)n1-c1ccc(OC(F)(F)F)cc1 the molecule record lists Tmax as 5.5
